species on record: Cavia porcellus; experiment: In vitro bronchodilatory activity in guinea pig isolated tracheal strips; type: functional; details: Trachea
pIC50: −log10 of the molar value.
readout: pIC50

                                 smiles_str  readout  meas_value
0      O=c1c2ccccc2c(-c2cccnc2)nn1CCn1cnnn1    pIC50        4.62
1  COC(=O)c1ccc(Cn2nc(-c3cccnc3)c3ccccc3c2=O)cc1    pIC50        5.23
2      O=c1c2ccccc2c(-c2cccnc2)nn1CC1CCCCC1    pIC50        6.68
3  O=c1c2ccccc2c(-c2cccnc2)nn1S(=O)(=O)c1ccccc1    pIC50        4.83
4      CC(=O)OCCn1nc(-c2cccnc2)c2ccccc2c1=O    pIC50        5.01

1. O=c1c2ccccc2c(-c2cccnc2)nn1C1CCCC1
2. O=c1c2ccccc2c(-c2cccnc2)nn1CCNS(=O)(=O)c1ccccc1
Which has the smaller recorded pIC50, 1 or 2 ? Pick one; state its label.
2
(2: 4.58, 1: 5.56)

P. CCCCn1nc(-c2cccnc2)c2ccccc2c1=O
Q. Oc1nnc(-c2cncs2)c2ccccc12
R. O=c1c2ccccc2c(-c2cccnc2)nn1CCO
S. CCOC(=O)Cn1nc(-c2cccnc2)c2ccccc2c1=O
Order the records so the highest pIC50 appears first and the lowest last. List labels; respect the requested ordering.
Q, P, R, S

1. CC(C)=CCn1nc(-c2cccnc2)c2ccccc2c1=O
2. O=c1c2ccccc2c(-c2cccnc2)nn1CCSc1ccccc1
3. Oc1nnc(-c2nccs2)c2ccccc12
4. Oc1nnc(-n2cncn2)c2ccccc12
5. CCn1nc(-c2cncs2)c2ccccc2c1=O
Please produce an ascending ranking of these compounds based on pIC50. List labels; respect the requested ordering.
4, 2, 3, 1, 5
(4: 4.78, 2: 5.04, 3: 5.34, 1: 5.86, 5: 6.25)

---

target: Thromboxane-A synthase (Rattus norvegicus) (UniProt P49430); assay: Tested ex vivo against TXA2 production in rat serum at 1 hr after peroral dose of 30 mg/kg and anesthetized with ether; format: functional, organism-based; parameters: dose 30 mg/kg
Sequence (P49430 whole entry): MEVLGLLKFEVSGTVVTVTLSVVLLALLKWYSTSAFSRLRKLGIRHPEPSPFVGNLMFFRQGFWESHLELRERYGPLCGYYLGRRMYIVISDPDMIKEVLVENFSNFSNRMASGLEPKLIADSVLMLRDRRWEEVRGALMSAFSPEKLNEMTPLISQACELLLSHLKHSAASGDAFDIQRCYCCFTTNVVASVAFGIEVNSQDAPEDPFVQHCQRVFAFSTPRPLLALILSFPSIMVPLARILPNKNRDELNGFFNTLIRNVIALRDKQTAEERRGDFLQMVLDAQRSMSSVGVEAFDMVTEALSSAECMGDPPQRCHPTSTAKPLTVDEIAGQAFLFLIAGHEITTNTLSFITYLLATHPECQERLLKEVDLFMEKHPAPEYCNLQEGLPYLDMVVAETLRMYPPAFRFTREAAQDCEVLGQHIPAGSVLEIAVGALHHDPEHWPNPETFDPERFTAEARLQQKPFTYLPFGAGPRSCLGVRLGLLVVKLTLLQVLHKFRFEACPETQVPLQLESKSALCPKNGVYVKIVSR
readout: inhibition (%)

>>> df
                           smiles_str                               target_desc     readout  meas_value
0     C=CCn1nc(-c2cccnc2)c2ccccc2c1=O  Thromboxane-A synthase (Rattus norvegicus) (UniProt P49430)  inhibition          82
1          Oc1nnc(-c2cccnc2)c2ccccc12  Thromboxane-A synthase (Rattus norvegicus) (UniProt P49430)  inhibition          78
2    CC(C)n1nc(-c2cccnc2)c2ccccc2c1=O  Thromboxane-A synthase (Rattus norvegicus) (UniProt P49430)  inhibition          82
3  O=c1c2ccccc2c(-c2cccnc2)nn1C1CCCC1  Thromboxane-A synthase (Rattus norvegicus) (UniProt P49430)  inhibition          80

---

tested on: Thromboxane-A synthase (Oryctolagus cuniculus); assay: Tested in vitro against rabbit thromboxane A2 synthetase (TXA2) at 1 uM
readout: inhibition (%)

Some solved entries appear below for comparison.
In [3]: df
Out[3]:
                                 smiles_str  units_symbol  meas_value
0      O=C(O)CCCn1nc(-c2cccnc2)c2ccccc2c1=O             %          73
1  O=C1c2ccccc2C(=O)N1CCn1nc(-c2cccnc2)c2ccccc2c1=O             %          87
2           COCCn1nc(-c2cccnc2)c2ccccc2c1=O             %          55
3        O=c1c2ccccc2c(-c2cccnc2)nn1C1CCCC1             %          97
4          CC(C)n1nc(-c2cccnc2)c2ccccc2c1=O             %          87
5           C=CCn1nc(-c2cccnc2)c2ccccc2c1=O             %          70

I. O=c1c2ccccc2c(-c2cccnc2)nn1CCNS(=O)(=O)c1ccccc1
II. O=c1c2ccccc2c(-c2cccnc2)nn1CCn1ccnc1
Which has the smaller recorded inhibition, I or II ? Pick one; state its label.
II
(II: 37%, I: 93%)

---

organism: Cavia porcellus; assay: In vitro bronchodilatory activity in guinea pig isolated tracheal strips; format: functional; conditions: Trachea
pIC50: −log10 of the molar value.
readout: pIC50

P. O=c1c2ccccc2c(-c2cccnc2)nn1CCCCSc1ncccn1
Q. O=C(O)c1ccc(Cn2nc(-c3cccnc3)c3ccccc3c2=O)cc1
R. CC(C)n1nc(-c2cncs2)c2ccccc2c1=O
S. Cn1nc(-c2cncs2)c2ccccc2c1=O
Put the items above in order of decreasing pIC50. List labels; respect the requested ordering.
S, R, P, Q
(S: 5.80, R: 5.47, P: 5.21, Q: 4.77)

---

tested on: Thromboxane-A synthase (Oryctolagus cuniculus); test: Tested in vitro against rabbit thromboxane A2 synthetase (TXA2) at 1 uM
readout: inhibition (%)

In [3]: df
Out[3]:
                                 smiles_str  units_symbol  meas_value
0    O=c1c2ccccc2c(-c2cccnc2)nn1CCSc1ncccn1             %          86
1  COC(=O)c1ccc(Cn2nc(-c3cccnc3)c3ccccc3c2=O)cc1             %          95
2            CCCn1nc(-c2cccnc2)c2ccccc2c1=O             %          86

---

organism: Cavia porcellus; experiment: In vitro bronchodilatory activity in guinea pig isolated tracheal strips; type: functional; conditions: Trachea
readout: IC50 (µM)

Some solved entries appear below for comparison.
                                 smiles_str  readout  meas_value
0              Cn1nc(-c2cccnc2)c2ccccc2c1=O     IC50        11.5
1  CC(C)NC(=O)CCCn1nc(-c2cccnc2)c2ccccc2c1=O     IC50        64.6
2    O=c1c2ccccc2c(-c2cccnc2)nn1CCSC1=NCCS1     IC50        10.5
3    CCOC(=O)CCCn1nc(-c2cccnc2)c2ccccc2c1=O     IC50          10

P. O=c1c2ccccc2c(-c2cccnc2)nn1CCSc1ncccn1
Q. CC(C)n1nc(-c2cccnc2)c2ccccc2c1=O
R. CCCCCCCCn1nc(-c2cccnc2)c2ccccc2c1=O
Please produce an ascending ranking of these compounds based on IC50. List labels; respect the requested ordering.
Q, P, R
(Q: 3.09 µM, P: 11 µM, R: 21.9 µM)

a. COCCn1nc(-c2cccnc2)c2ccccc2c1=O
b. CC(=O)Cn1nc(-c2cccnc2)c2ccccc2c1=O
When a and b are compared, which has the higher number for IC50? Pick one; state its label.
b
(b: 40.7 µM, a: 9.33 µM)

P. CCn1nc(-c2cncnc2)c2ccccc2c1=O
Q. CCn1nc(-n2cncn2)c2ccccc2c1=O
When P and Q are compared, which has the higher number for IC50? Pick one; state its label.
Q

P. Oc1nnc(-n2ccnc2)c2ccccc12
Q. O=c1c2ccccc2c(-c2cccnc2)nn1Cc1ccccc1
R. O=c1c2ccccc2c(-c2cccnc2)nn1Cc1cccc(Cl)c1
S. O=C1c2ccccc2C(=O)N1CCn1nc(-c2cccnc2)c2ccccc2c1=O
T. CCn1nc(-c2cccnc2)c2ccccc2c1=O
Please produce an ascending ranking of these compounds based on IC50. List labels; respect the requested ordering.
T, Q, R, P, S
(T: 1.32 µM, Q: 2.45 µM, R: 4.17 µM, P: 8.32 µM, S: 21.9 µM)

---

organism: Cavia porcellus; test: In vitro bronchodilatory activity in guinea pig isolated tracheal strips; type: functional; conditions: Trachea
pIC50: −log10 of the molar value.
readout: pIC50

>>> df
                        smiles_str  meas_value
0    CCn1nc(-c2cnccn2)c2ccccc2c1=O        4.96
1  C=CCn1nc(-c2cccnc2)c2ccccc2c1=O        5.67

I. CC(C)Cn1nc(-c2cncs2)c2ccccc2c1=O
II. CCn1nc(-n2ccnc2)c2ccccc2c1=O
When I and II are compared, which has the higher number for pIC50? Pick one; state its label.
I

A. CCCn1nc(-c2cccnc2)c2ccccc2c1=O
B. O=C(c1cccs1)n1nc(-c2cccnc2)c2ccccc2c1=O
Which has the smaller recorded pIC50, A or B ? Pick one; state its label.
B

1. CCn1nc(-c2nccs2)c2ccccc2c1=O
2. Oc1nnc(-c2cccnc2)c2ccccc12
Which has the smaller recorded pIC50, 1 or 2 ? Pick one; state its label.
2

---

organism: Cavia porcellus; assay: In vitro bronchodilatory activity in guinea pig isolated tracheal strips; type: functional; conditions: Trachea
readout: IC50

Some solved entries appear below for comparison.
In [3]: df
Out[3]:
                           smiles_str  readout  meas_value
0  O=C(O)Cn1nc(-c2cccnc2)c2ccccc2c1=O     IC50    > 100 µM
1      NCCn1nc(-c2cccnc2)c2ccccc2c1=O     IC50    > 100 µM
2       O=C(O)/C=C/c1ccc(Cn2ccnc2)cc1     IC50   > 1000 µM

Recorded result, O=C(O)CCCn1nc(-c2cccnc2)c2ccccc2c1=O , IC50: > 100 µM
